Target: human STING (WT) (Homo sapiens (Human), UniProt Q86WV6, H232R)
Sequence (Q86WV6 other isoform, or with tags, fused parts or gaps, stated change not applied): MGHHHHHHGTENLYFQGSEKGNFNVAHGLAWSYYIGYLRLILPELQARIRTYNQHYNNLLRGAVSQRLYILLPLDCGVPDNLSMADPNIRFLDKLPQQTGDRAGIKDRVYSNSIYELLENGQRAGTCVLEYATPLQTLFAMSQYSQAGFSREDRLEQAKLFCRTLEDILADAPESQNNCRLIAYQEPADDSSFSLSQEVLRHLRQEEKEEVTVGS
Test: Differential scanning fluorimetry (DSF), huSTING (WT)
Assay type: binding
Settings: 2 μM protein, compound 100 μM; Tm with ligand minus Tm of protein alone (1% DMSO); read-out: DSF huSTING (WT) ΔTm (° C.)
ENDPOINT_LABEL: ΔTm at 100 µM (°C)
Respond numerically; units are °C and should not be typed.

As a guide, the following entries are already answered.
COMPOUND	READOUT_NUMBER
COc1c(C(N)=O)ccc2c1nc(-c1ccc(C#N)cc1C(=O)O)n2CCn1c(-c2ccc(C#N)cc2C(=O)O)nc2c(OC)c(C(N)=O)ccc21 [Example 51]	-0.85
COc1c(C(N)=O)ccc2c1nc(-c1ccc(C)cc1C(=O)O)n2CCn1c(-c2ccc(C)cc2C(=O)O)nc2c(OC)c(C(N)=O)ccc21 [Example 25]	-18.4
COc1c(C(N)=O)ccc2c1nc(-c1ccc(Br)cc1C(=O)O)n2CCn1c(-c2ccc(Br)cc2C(=O)O)nc2c(OC)c(C(N)=O)ccc21 [Example 14]	4.74
COc1c(C(N)=O)ccc2c1nc(-c1c(F)cccc1C(=O)O)n2CCn1c(-c2c(F)cccc2C(=O)O)nc2c(OC)c(C(N)=O)ccc21 [Example 10]	9.63
COc1c(C(N)=O)ccc2c1nc(-c1ncc(Cl)cc1C(=O)O)n2CCn1c(-c2ncc(Cl)cc2C(=O)O)nc2c(OC)c(C(N)=O)ccc21 [Example 31]	0.18
COc1c(C(N)=O)ccc2c1nc(-c1ccc(Cl)cc1-c1noc(=O)[nH]1)n2CCn1c(-c2ccc(Cl)cc2-c2noc(=O)[nH]2)nc2c(OC)c(C(N)=O)ccc21 [Example 32]	0.51

Now turn to the next compound.
Challenge: Fill in ΔTm at 100 µM for record NC(=O)c1ccc2c(c1)nc(-c1cc(Br)ccc1C(=O)O)n2CCn1c(-c2cc(Br)ccc2C(=O)O)nc2cc(C(N)=O)ccc21 [Example 3]
Response given: -0.02
